Form field: TGI (one value per entry).
tested on: RPMI-8226 leukemia; assay: NCI tumour cell line growth inhibition, 48 h

Below, each entry is followed by its recorded TGI result.
COC(=O)N1C=CC2=C(C)C3Nc4ccccc4C3C(C)=C2C1 (stereo not drawn)    5.87 µM
COc1ccc(C(=O)c2no[n+]([O-])c2C(=O)c2ccc(OC)cc2)cc1    4.85 µM
CC1=NN(c2nc(N)nc(CCl)n2)C(C)(C)C1    > 100 µM
O=S(=O)([O-])c1ccc(C=Nc2ccccc2)c([O-])c1.O=S(=O)([O-])c1ccc(C=Nc2ccccc2)c([O-])c1.[Co+2]    > 100 µM

# evaluate next
-- ask State the measured TGI (RPMI-8226 leukemia) of CC(C)(C)c1cc(C(C)(C)C)c(SSc2c(C(C)(C)C)cc(C(C)(C)C)c(O)c2O)c(O)c1O
-- reply 32.1 µM

---

system: A549 NSCLC; test: NCI tumour cell line growth inhibition, 48 h; in the data active = GI50 below about 0.43 µM; inactive = the rest
Assign a class; possible classes are class 1 (active), class 0 (inactive)

Illustrative cases are given below, each with its answer.
CCc1n(Cc2ccc3ccccc3c2)cc[n+]1Cc1ccc2ccccc2c1    class 0
CC(=O)OC1C(C)OC(Oc2c(-c3ccc(O)cc3)oc3cc(O)cc(O)c3c2=O)C(O)C1OC(C)=O (stereo not given)    class 0
O=C(NCCc1nccs1)c1cnc2c(S)cccc2c1    class 0

-- ask Could you check what this test reported for O=C1/C(=C/c2ccc([N+](=O)[O-])s2)Oc2ccc(Br)cc21 ?
-- reply class 1

-- ask Could you check what this test reported for CCOC(=O)CCC(NC(=O)c1ccc(Oc2nc3cc(N)cc(N)c3nc2-c2ccccc2)cc1)C(=O)OCC (stereo not given) ?
-- reply class 0

-- ask Could you check what this test reported for CCn1cnc(C[C@H](NC(=O)[C@@H](NC(=O)Nc2cc(C(F)(F)F)cc(C(F)(F)F)c2)C(C)(C)C)C(=O)OC)c1 ?
-- reply class 0

-- ask Could you check what this test reported for O=NN(CC(=O)NNc1ccccc1)CC(=O)NNc1ccccc1 ?
-- reply class 0

-- ask Could you check what this test reported for N#C/C(=C\c1ccccn1)c1nc2ccccc2o1 ?
-- reply class 0

-- ask Could you check what this test reported for O=C1CC[C@@H]2[C@H]3CCC(=O)c4c3c(c3cccc(O)c3c4O)O[C@@]23C(=O)c2cccc(O)c2C(O)=C13 ?
-- reply class 0

-- ask Could you check what this test reported for Cc1nc2ccccc2c(/C=C/c2ccc(C(F)(F)F)cc2)c1C(=O)/C=C/c1ccccc1 ?
-- reply class 0

---

tested on: SF-268 CNS; test: NCI tumour cell line growth inhibition, 48 h
Form field: TGI (one value per entry).

Below, each entry is followed by its recorded TGI result.
CSCCCNC(=O)c1csc(-c2csc(CCNC(=O)CNC(=O)OC(C)(C)C)n2)n1    > 100 µM
CCOC(=O)N1C/C(=C\c2ccc(N(C)C)cc2)C(=O)/C(=C/c2ccc(N(C)C)cc2)C1    > 100 µM
COc1ccc(/C=C2\CC3C4CC=C5C[C@@H](N6CCCC6)CC[C@]5(C)C4CC[C@]3(C)[C@H]2O)cc1OC (stereo not given in full)    22.4 µM

-- ask Output TGI of COC(=O)c1c(C)c2c(c(C)c1O)OC(=O)c1c(C)cc(O)c(C=O)c1O2
-- reply > 100 µM

-- ask Output TGI of C=Cc1c(-c2ccccc2)cnc2[nH]c3ccccc3c12
-- reply > 50 µM
